- Tested on: Sarcoma 180
- assay_explanation: In vivo antitumor activity against Sarcoma 180
- Design: species or system male ICR mice
- recorded_conditions: 25 mg/kg/day, i.p., days 1, 5 and 9
Counter-ions that a name gives are not always drawn.
reported_property: Mortality in 12 days

{"columns": ["compound", "Mortality in 12 days"],
 "data": [
  ["Cl.NCC(=O)NCC(=O)OC[C@H]1CN2C(=O)C[C@@H]2O1 (racemic) [Example 40B]", "0/6"],
  ["CC(C)[C@H](N)C(=O)OC[C@H]1CN2C(=O)C[C@@H]2O1.Cl (mixture of isomers) [Example 54B]", "0/6"],
  ["CC(=O)NCC(=O)NC[C@@H]1CN2C(=O)C[C@H]2O1 (relative stereo)", "4/6"],
  ["CC(C)[C@H](NC(=O)[C@@H](N)CC(=O)O)C(=O)OCC1CN2C(=O)CC2O1 (stereo partly shown) [Example 57B]", "0/6"],
  ["Cl.NCC(=O)OC[C@H]1CN2C(=O)C[C@@H]2O1 (racemic)", "0/6"],
  ["C[C@@H](NC(=O)Cc1cccs1)C(=O)N[C@H](C)C(=O)OCC1CN2C(=O)CC2O1 (stereo partly shown)", "0/6"],
  ["N[C@H](CCC(=O)OC[C@H]1CN2C(=O)C[C@@H]2O1)C(=O)O (mixture of isomers) [Example 68B]", "0/6"],
  ["N[C@@H](CC(=O)O)C(=O)OC[C@H]1CN2C(=O)C[C@@H]2O1 (mixture of isomers) [Example 66B]", "0/6"]
]}

Please state, for each entry, its recorded Mortality in 12 days.
1. C[C@@H](N)C(=O)NCC1CN2C(=O)CC2O1 (stereo partly shown) [Example 53B, hydrochloride]
2. C[C@H](N)C(=O)NCC(=O)OC[C@H]1CN2C(=O)C[C@@H]2O1.Cl (mixture of isomers) [Example 41B]
3. CC(C)[C@H](N)C(=O)NCC(=O)NC[C@@H]1CN2C(=O)C[C@H]2O1.Cl (mixture of isomers) [Example 45B]

# output
1/6
0/6
0/6

###

- System: Sarcoma 180
- assay_explanation: In vivo antitumor activity against Sarcoma 180
- Design: species or system male ICR mice
- recorded_conditions: 50 mg/kg/day, i.p., days 1, 5 and 9
Counter-ions that a name gives are not always drawn.
reported_property: Mortality in 12 days

{"columns": ["compound", "tgt", "Mortality in 12 days"],
 "data": [
  ["N[C@@H](CC(=O)O)C(=O)NCC(=O)NCC1CN2C(=O)CC2O1 (stereo partly drawn) [Example 46B]", "Sarcoma 180", "1/6"],
  ["CC(C)[C@H](N)C(=O)NCC(=O)OC[C@H]1CN2C(=O)C[C@@H]2O1.Cl (mixture of isomers) [Example 42B]", "Sarcoma 180", "0/6"],
  ["N[C@@H](Cc1ccccc1)C(=O)NCC1CN2C(=O)CC2O1 (stereo partly drawn) [Example 63B, hydrochloride]", "Sarcoma 180", "0/6"],
  ["CC(C)[C@H](N)C(=O)NCC(=O)NC[C@@H]1CN2C(=O)C[C@H]2O1.Cl (mixture of isomers) [Example 45B]", "Sarcoma 180", "0/6"],
  ["CC(C)[C@H](NC(=O)CN)C(=O)OCC1CN2C(=O)CC2O1 (stereo partly drawn) [Example 55B, hydrochloride]", "Sarcoma 180", "0/6"],
  ["CC(C)[C@H](N)C(=O)N[C@@H](COCc1ccccc1)C(=O)OCC1CN2C(=O)CC2O1 (stereo partly drawn) [Example 74B, hydrochloride]", "Sarcoma 180", "0/6"],
  ["COc1ccc(S(=O)(=O)NC[C@H]2CN3C(=O)C[C@@H]3O2)cc1 (relative stereo) [Example 38]", "Sarcoma 180", "0/6"],
  ["CC(C)[C@@H](N)C(=O)OC[C@H]1CN2C(=O)C[C@@H]2O1.Cl (mixture of isomers) [Example 60B]", "Sarcoma 180", "0/6"]
]}

Please state, for each entry, its recorded Mortality in 12 days.
1. Cl.NCC(=O)NCC(=O)OC[C@H]1CN2C(=O)C[C@@H]2O1 (racemic) [Example 40B]
2. O=C(NCCCC[C@H](NC(=O)OCc1ccccc1)C(=O)OCC1CN2C(=O)CC2O1)OCc1ccccc1 (stereo partly drawn) [Example 77A]
3. CC(C)[C@H](NC(=O)[C@@H](N)CC(=O)O)C(=O)OCC1CN2C(=O)CC2O1 (stereo partly drawn) [Example 57B]

# output
1. 0/6
2. 0/6
3. 1/6

Please state, for each entry, its recorded Mortality in 12 days.
1. CC(C)[C@H](N)C(=O)N[C@@H](C)C(=O)OCC1CN2C(=O)CC2O1 (stereo partly drawn) [Example 49B, hydrochloride]
2. C[C@H](N)C(=O)OC[C@H]1CN2C(=O)C[C@@H]2O1.Cl (mixture of isomers) [Example 48B]
3. N[C@H](CCC(=O)OC[C@H]1CN2C(=O)C[C@@H]2O1)C(=O)O (mixture of isomers) [Example 68B]
4. C[C@@H](NC(=O)Cc1cccs1)C(=O)N[C@H](C)C(=O)OCC1CN2C(=O)CC2O1 (stereo partly drawn) [Example 52]

# output
["0/6", "2/6", "3/6", "0/6"]
